- experimental.target: EPOR (Homo sapiens)
- Sequence (P19235 25-508): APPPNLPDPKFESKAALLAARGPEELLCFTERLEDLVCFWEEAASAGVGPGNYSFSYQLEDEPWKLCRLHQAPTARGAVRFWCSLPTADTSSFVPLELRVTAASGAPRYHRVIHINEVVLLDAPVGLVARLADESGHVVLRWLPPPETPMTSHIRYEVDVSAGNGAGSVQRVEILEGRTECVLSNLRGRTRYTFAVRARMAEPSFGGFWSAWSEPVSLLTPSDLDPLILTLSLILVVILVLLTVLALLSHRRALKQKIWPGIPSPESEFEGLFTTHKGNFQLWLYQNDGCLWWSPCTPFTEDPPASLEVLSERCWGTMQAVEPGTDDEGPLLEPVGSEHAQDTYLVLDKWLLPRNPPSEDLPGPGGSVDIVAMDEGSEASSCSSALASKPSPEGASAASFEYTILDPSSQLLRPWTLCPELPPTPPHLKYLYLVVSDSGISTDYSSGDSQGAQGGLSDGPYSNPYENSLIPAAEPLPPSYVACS
- experiment.summary: EPOR-JAK2 functional assay (PathHunter)
- Assay type: cell-based
- cond: purified, 3 h at room temperature; read-out: half-maximal effective concentration (EC50)
Positions of bridges follow the written chain, without caps; N, C: chain ends. No end group written: not given here.
readout.kind: EC50 (nM)
Give bare numbers, in nM.

Quick one: EC50 for AETGGLYACHMGPMTWVCQPLRGAAPAAPAPGGLYACHMGPMTWVCQPLRG (disulfide 9-18, 37-46) [EMP-PA8] ?
0.022

----------
- experimental.target: human EPOR ectodomain-Fc (Homo sapiens)
- Construct: human EPOR ectodomain-Fc; purchased R&D Systems
- experiment.summary: SPR analysis, human EPOR ectodomain
- Assay type: binding
- cond: Table S1, Average of N 1-3
Positions of bridges follow the written chain, without caps; N, C: chain ends. No end group written: not given here.
readout.kind: Kd (nM)
Numbers only, in nM.

Which measured Kd belongs to AETGGLYACHMGPMTWVCQPLRGAAPAAPAPGGLYACHMGPMTWVCQPLRG (disulfide 9-18, 37-46) [EMP-PA8] , tested on human EPOR ectodomain-Fc (Homo sapiens)?
0.03
